Biological target: P. pyralis FLuc (Photinus pyralis)
Sequence (P08659 whole entry): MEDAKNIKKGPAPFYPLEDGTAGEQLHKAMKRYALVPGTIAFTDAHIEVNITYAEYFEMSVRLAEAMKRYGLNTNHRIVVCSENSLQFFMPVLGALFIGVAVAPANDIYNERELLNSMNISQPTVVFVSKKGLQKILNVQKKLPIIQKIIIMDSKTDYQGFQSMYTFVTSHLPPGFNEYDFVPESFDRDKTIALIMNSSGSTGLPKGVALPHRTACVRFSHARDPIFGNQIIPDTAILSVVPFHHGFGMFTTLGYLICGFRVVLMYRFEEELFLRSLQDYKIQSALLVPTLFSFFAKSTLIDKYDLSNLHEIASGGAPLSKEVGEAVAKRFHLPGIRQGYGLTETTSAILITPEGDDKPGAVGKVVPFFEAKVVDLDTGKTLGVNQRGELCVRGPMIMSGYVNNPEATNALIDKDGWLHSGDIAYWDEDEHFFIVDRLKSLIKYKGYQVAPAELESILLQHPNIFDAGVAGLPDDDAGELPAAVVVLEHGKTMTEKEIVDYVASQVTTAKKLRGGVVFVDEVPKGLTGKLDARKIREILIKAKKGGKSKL
Assay: FLuc enzymatic luminescence assay, P. pyralis FLuc
Type: biochemical
Details: FLuc enzymatic assay; read-out: IC50 or SDR50 (mM) FLuc E
Protocol: The enzyme activity of FLuc-N-HiBiT, FLuc-C-HiBiT, and FLuc-C-NLuc was measured similar to P. pyralis firefly luciferase (FLuc) as previously described. […] Luciferin was incubated with FLuc enzyme for 5 min before FLuc activity was then measured on a ViewLux CCD imager (PerkinElmer), with exposure times up to ten seconds with medium to high gain settings. […] 5 Detector ViewLux Read plate lum inescence (Exposure = 1- 10 sec; Gain = Medium -high; Speed = Slow; […]
Label satisfied when IC50 is strictly below 0.007 mM; at or above that, label not satisfied.

Observe how each entry below is paired with its result.
compound="O=C(NCc1cc(F)cc(F)c1)C1CCN(C(=O)c2ncn3c2COC(c2ccc(F)cc2)C3)CC1 (centres unmarked) [NCGC00449820-01]" measured_target="P. pyralis FLuc (Photinus pyralis)" class_assignment="not satisfied"
compound="O=C(NC1CCCCC1)C1CCN(C(=O)c2ncn3c2COC(c2ccc(F)cc2)C3)CC1 (centres unmarked) [NCGC00449807-01]" measured_target="P. pyralis FLuc (Photinus pyralis)" class_assignment="not satisfied"
compound="CCc1ccc(CNC(=O)C2CCN(C(=O)c3ncn4c3COC(c3ccccc3)C4)CC2)cc1 (centres unmarked) [NCGC00449775-01]" measured_target="P. pyralis FLuc (Photinus pyralis)" class_assignment="not satisfied"
compound="Cc1ccc(CNC(=O)C2CCN(C(=O)c3ncn4c3COC(c3ccccc3)C4)CC2)cc1 (centres unmarked) [NCGC00449774-01]" measured_target="P. pyralis FLuc (Photinus pyralis)" class_assignment="not satisfied"
compound="O=C(NCc1ccccc1Cl)C1CCN(C(=O)c2ncn3c2COC(c2ccccc2)C3)CC1 (centres unmarked) [NCGC00449786-01]" measured_target="P. pyralis FLuc (Photinus pyralis)" class_assignment="not satisfied"

Q. Is 0.007 mM strictly greater than the compound's reported IC50? compound: O=C(NC1CC1)C1CCN(C(=O)c2ncn3c2COC(c2ccc(F)cc2)C3)CC1 (centres unmarked) [NCGC00449806-01]
A. not satisfied

Q. In plain terms, does CCOc1cccc(CNC(=O)C2CCN(C(=O)c3ncn4c3COC(c3ccccc3)C4)CC2)c1 (centres unmarked) [NCGC00449780-01] come in under 0.007 mM for IC50?
A. not satisfied

Q. API: query returns whether the compound falls strictly under 0.007 mM in IC50. Query: O=C(NCC1CC1)C1CCN(C(=O)c2ncn3c2COC(c2ccccc2)C3)CC1 (centres unmarked) [NCGC00449799-01]
A. not satisfied

Q. Please let me know if CC(C)NC(=O)C1CCN(C(=O)c2ncn3c2COC(c2ccccc2)C3)CC1 (centres unmarked) [NCGC00449767-01] shows IC50 below 0.007 mM.
A. satisfied

Q. Please let me know if O=C(NCc1ccccc1F)C1CCN(C(=O)c2ncn3c2COC(c2ccccc2)C3)CC1 (centres unmarked) [NCGC00449783-01] shows IC50 below 0.007 mM.
A. satisfied

Q. For this compound, is IC50 lower than 0.007 mM? O=C(NCc1ccc(F)cc1)C1CCN(C(=O)c2ncn3c2COC(c2ccccc2)C3)CC1 (centres unmarked) [NCGC00449784-01]
A. satisfied

Q. IC50 under 0.007 mM? Item: CCOc1ccccc1CNC(=O)C1CCN(C(=O)c2ncn3c2COC(c2ccccc2)C3)CC1 (centres unmarked) [NCGC00449779-01]
A. satisfied
